Below is a list of entries, each paired with its recorded pKd value.
# TARGET_UNDER_TEST: monomeric SARS-CoV-2 RBD (S residues 332-534) with Flag peptide and 8xHis-tag (SARS-CoV-2 (WA1 strain), UniProt P0DTC2 332-534)
# ASSAY_NAME: SPR
Formally, pKd is defined as -log10 of the concentration c, with c in mol/L.

query: Look up pKd: hcAb 2.1 (Nb 2.1 fused to the human IgG1 hinge and Fc) (Fc fusion) QVQLVESGGGSVQAGGSLRLSCAAFGATISSAHMGWFRQAPGKEREGVAFRYTDGSSTYYTTSVRGRFTISQDNAKNTVYLQMNSLKPEDTAMYYCASNPSWGRLVGGQYNNWGQGTQITVSS
result: 9.44

query: Looking for the measured pKd of Nb 2.15, monomeric nanobody (VHH) VHH: QVQLVESGGGSVQAGGSLKLSCAASGYASWARKCIGWFRQAPGQEREGVAAIFDFDGSTYYSDSVKGRFTISGDNAKNTVSLQMNSLLPKDTAVYYCTVAFGTCDNWYRGRGDYWGQGTQVTVSS , can you help?
result: 9.41

query: What pKd value was documented for this binder, Nb 2.1, monomeric nanobody (VHH) VHH: QVQLVESGGGSVQAGGSLRLSCAAFGATISSAHMGWFRQAPGKEREGVAFRYTDGSSTYYTTSVRGRFTISQDNAKNTVYLQMNSLKPEDTAMYYCASNPSWGRLVGGQYNNWGQGTQITVSS ?
result: 8.76

query: Returns the measured pKd for the input binder. Input: hcAb 2.15 (Nb 2.15 fused to the human IgG1 hinge and Fc) (Fc fusion) QVQLVESGGGSVQAGGSLKLSCAASGYASWARKCIGWFRQAPGQEREGVAAIFDFDGSTYYSDSVKGRFTISGDNAKNTVSLQMNSLLPKDTAVYYCTVAFGTCDNWYRGRGDYWGQGTQVTVSS
result: 10.10
